- ASSAY TARGET: HDM2 (Homo sapiens, UniProt Q00987)
- Construct: Thioredoxin (N); made in house; host or cells: E. coli strain BL21(DE3)Rosetta
- Sequence (Q00987 17-125): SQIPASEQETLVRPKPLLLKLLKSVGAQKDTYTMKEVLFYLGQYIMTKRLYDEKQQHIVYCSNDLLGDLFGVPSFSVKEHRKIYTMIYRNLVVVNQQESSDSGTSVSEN
- ASSAY: HDM2 FRET assay (inhibition of binding of FITC labeled p53-pocket peptide to HDM2)
- ASSAY SETUP: Table 22; read-out: FRET IC50
Kindly supply the reported pIC50 values for the records listed here.
// pIC50 here means minus log10 of the molar concentration (mol/L)

What the record says about C[C@@H](Nc1nc(-c2noc(=O)[nH]2)nc2nc(C3(O)CCCCC3)n(C[C@H]3CC[C@H](C)CC3)c12)C1CCC1 : pIC50 is 7.88

pIC50 measured on C[C@@H](Nc1nc(-c2noc(=O)[nH]2)nc2nc(C3(c4ccncc4)CC3)n(C[C@H]3CC[C@H](C)CC3)c12)C1CCC1 = 8.34

Sample C[C@@H](Nc1nc(-c2noc(=O)[nH]2)nc2nc(C3(F)CCC3)n(C[C@H]3CC[C@H](C)CC3)c12)C1CCC1 ; pIC50 observed: 7.77

So, CC(C)C(O)c1nc2nc(-c3noc(=O)[nH]3)nc(N[C@H](C)C3CCC3)c2n1C[C@H]1CC[C@H](C)CC1 (stereo partly drawn) [Example 22.45] ? Its pIC50 was 8.44

Just so you know, measured pIC50 for COC(c1ccccc1)c1nc2nc(-c3noc(=O)[nH]3)nc(N[C@H](C)C3CCC3)c2n1C[C@H]1CC[C@H](C)CC1 (single isomer, unassigned) [Example 22.20] came out at 8.82

Lookup result for CC(C)C(O)c1nc2nc(-c3noc(=O)[nH]3)nc(N[C@H](C)C3CCC3)c2n1C[C@H]1CC[C@H](C)CC1 (stereo partly drawn) [Example 22.48] ; measured pIC50: 7.52

* * *

- ASSAY TARGET: HDM2 (Homo sapiens, UniProt Q00987)
- Construct: Thioredoxin (N); made in house; host or cells: E. coli strain BL21(DE3)Rosetta
- ASSAY: HDM2 FRET assay (inhibition of binding of FITC labeled p53-pocket peptide to HDM2)
- ASSAY SETUP: Table 22; read-out: FRET IC50
- Text: Methods: An HDM2 FRET assay was developed to assess the compounds' inhibitory activity towards binding of p53 protein. […] Protein was purified using Ni-affinity chromatography, followed by size exclusion chromatography using Superdex 75 26/60 column. […] The HDM2 assay buffer contained 1x Phosphate Buffered Saline (Invitrogen, Cat#14190), 0.01% BSA (Jackson ImmunoResearch, Cat# 001-000-162), 0.01% Tween-20. […]
REPORTED ENDPOINT: IC50
Show the value, then the unit it is measured in.

C[C@@H](Nc1nc(-c2noc(=O)[nH]2)nc2nc(C(O)C3CCC3)n(C[C@H]3CC[C@H](C)CC3)c12)C1CCC1 (stereo partly drawn) [Example 22.57] tested on HDM2 (Homo sapiens, UniProt Q00987) gave IC50: 9.75 nM

Given the compound C[C@@H](Nc1nc(-c2noc(=O)[nH]2)nc2nc(C(O)C3CCOCC3)n(C[C@H]3CC[C@H](C)CC3)c12)C1CCC1 (stereo partly drawn) [Example 22.34] and test system HDM2 (Homo sapiens, UniProt Q00987), the measured IC50 is 24.6 nM

// assay HDM2 (Homo sapiens, UniProt Q00987), entry C[C@@H](Nc1nc(-c2noc(=O)[nH]2)nc2nc(C3(c4ccccc4)CCO3)n(C[C@H]3CC[C@H](C)CC3)c12)C1CCC1 (stereo partly drawn) [Example 22.81] , IC50 value = 11 nM
